Entries annotated with measured LC (maximum loading capacity)
TEST NAME: Solubilization of poorly soluble drugs in PMeOx-PcBOx polymeric micelles
CONDITION SUMMARY: polymer 10 mg/ml
OBSERVED PROPERTY: LC (maximum loading capacity) (%)

INSERT INTO results (compound, observed_property, experimental_value) VALUES
  ('c1ccc(-c2nn3c(c2-c2ccnc4cc(OCCN5CCOCC5)ccc24)CCC3)nc1 [LY2109761]', 'LC (maximum loading capacity)', 24.7),
  ('CS(=O)(=O)N1CCN(Cc2cc3nc(-c4cccc5[nH]ncc45)nc(N4CCOCC4)c3s2)CC1 [GDC-0941, pictilisib]', 'LC (maximum loading capacity)', 4.3),
  ('CC(=O)O[C@H]1C(=O)[C@@]2(C)[C@H]([C@H](OC(=O)c3ccccc3)[C@]3(O)C[C@H](OC(=O)[C@H](O)[C@@H](NC(=O)c4ccccc4)c4ccccc4)C(C)=C1C3(C)C)[C@]1(OC(C)=O)CO[C@@H]1C[C@@H]2O [paclitaxel]', 'LC (maximum loading capacity)', 6.3),
  ('c1ccc(-c2[nH]ncc2-c2ccnc3ccccc23)nc1 [LY364947]', 'LC (maximum loading capacity)', 0.3),
  ('CC[C@@]1(O)C[C@H](O[C@H]2C[C@H](N(C)C)[C@H](O[C@H]3C[C@H](O)[C@H](O[C@H]4CCC(=O)[C@H](C)O4)[C@H](C)O3)[C@H](C)O2)c2c(cc3c(c2O)C(=O)c2c(O)cccc2C3=O)[C@H]1C(=O)OC [aclacinomycin A, Aclacinomycin A]', 'LC (maximum loading capacity)', 6.8),
  ('O=C(NC1CCOCC1)c1ccc(-c2cc(-c3c[nH]nc3-c3ccccn3)ccn2)cc1 [GW788388]', 'LC (maximum loading capacity)', 0.2);

----------
TEST NAME: physchem
CONDITION SUMMARY: aqueous with cosolvent or surfactant or cyclodextrin
OBSERVED PROPERTY: solubility (µg/mL)

INSERT INTO assay_data (smiles_structure, observed_property, measurement_units, experimental_value) VALUES
  ('CC(=O)O[C@H]1C(=O)[C@@]2(C)[C@H]([C@H](OC(=O)c3ccccc3)[C@]3(O)C[C@H](OC(=O)[C@H](O)[C@@H](NC(=O)c4ccccc4)c4ccccc4)C(C)=C1C3(C)C)[C@]1(OC(C)=O)CO[C@@H]1C[C@@H]2O', 'solubility', 'µg/mL', 6890);
